Target: Histamine H1 receptor (Cavia porcellus) (UniProt P31389)
Sequence (P31389 whole entry): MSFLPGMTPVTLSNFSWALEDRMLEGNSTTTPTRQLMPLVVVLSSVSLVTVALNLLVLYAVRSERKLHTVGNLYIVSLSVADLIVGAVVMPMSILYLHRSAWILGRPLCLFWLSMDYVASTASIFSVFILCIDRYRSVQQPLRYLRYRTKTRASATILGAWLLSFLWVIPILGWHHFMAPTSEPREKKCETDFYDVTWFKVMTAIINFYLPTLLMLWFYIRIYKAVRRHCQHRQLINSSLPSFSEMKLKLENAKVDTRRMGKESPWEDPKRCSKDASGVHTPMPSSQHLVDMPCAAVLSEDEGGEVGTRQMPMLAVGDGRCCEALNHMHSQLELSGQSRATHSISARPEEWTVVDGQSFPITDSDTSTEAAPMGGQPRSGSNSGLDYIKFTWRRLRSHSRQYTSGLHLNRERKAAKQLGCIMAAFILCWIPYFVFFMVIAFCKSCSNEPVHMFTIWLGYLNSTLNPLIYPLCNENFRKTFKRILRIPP
Test: Partial agonist activity with mepyramine against Histamine H1 receptor in guinea pig ileum.
Assay type: functional, tissue-based
endpoint: Emax (%)
Field format: number, assumed %, no unit text.

{"columns": ["smiles_text", "endpoint", "output_unit", "test_value"],
 "data": [
  ["CN(C)CCc1c[nH]c(-c2cccc(C(F)(F)F)c2)n1", "Emax", "%", 67]
]}

### Prompt Value wanted: Emax (Histamine H1 receptor (Cavia porcellus) (UniProt P31389)) of entry CN(C)CCc1c[nH]c(-c2cccc(Br)c2)n1
### Response 58

### Prompt Value wanted: Emax (Histamine H1 receptor (Cavia porcellus) (UniProt P31389)) of entry CCNCCc1c[nH]c(-c2cccc(C(F)(F)F)c2)n1
### Response 40

### Prompt Value wanted: Emax (Histamine H1 receptor (Cavia porcellus) (UniProt P31389)) of entry CNCCc1c[nH]c(-c2cccc(C(F)(F)F)c2)n1
### Response 77

### Prompt Value wanted: Emax (Histamine H1 receptor (Cavia porcellus) (UniProt P31389)) of entry NCCc1c[nH]cn1
### Response 100

### Prompt Value wanted: Emax (Histamine H1 receptor (Cavia porcellus) (UniProt P31389)) of entry CNCCc1c[nH]c(-c2cccc(Br)c2)n1
### Response 71

### Prompt Value wanted: Emax (Histamine H1 receptor (Cavia porcellus) (UniProt P31389)) of entry FC(F)(F)c1cccc(-c2nc(CCNC3CC3)c[nH]2)c1
### Response 20

Data origin: ChEMBL document CHEMBL1130586
